- target: AChE E. eel (Electrophorus electricus, UniProt O42275)
- Construct: purchased Sigma Chemical
- Sequence (O42275 24-633): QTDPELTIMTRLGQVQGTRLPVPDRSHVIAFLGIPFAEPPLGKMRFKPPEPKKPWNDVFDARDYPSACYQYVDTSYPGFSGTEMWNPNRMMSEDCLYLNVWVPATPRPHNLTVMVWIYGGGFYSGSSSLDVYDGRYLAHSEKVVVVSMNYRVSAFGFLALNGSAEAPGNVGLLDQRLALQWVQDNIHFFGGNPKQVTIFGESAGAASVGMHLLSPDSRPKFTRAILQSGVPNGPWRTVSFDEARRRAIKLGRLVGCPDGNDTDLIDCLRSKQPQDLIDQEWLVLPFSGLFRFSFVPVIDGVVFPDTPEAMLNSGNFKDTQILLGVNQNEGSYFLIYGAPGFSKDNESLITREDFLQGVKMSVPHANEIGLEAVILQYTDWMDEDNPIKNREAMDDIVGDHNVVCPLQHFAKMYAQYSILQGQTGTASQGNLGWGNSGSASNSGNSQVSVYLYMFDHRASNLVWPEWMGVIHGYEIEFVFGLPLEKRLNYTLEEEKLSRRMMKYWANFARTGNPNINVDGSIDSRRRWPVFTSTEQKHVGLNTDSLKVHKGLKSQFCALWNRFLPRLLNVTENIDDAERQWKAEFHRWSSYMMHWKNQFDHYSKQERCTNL
- assay: biochemical
- Design: species or system Electric Eel
measurement_type: IC50 (nM)
Express the result in nM but write the number alone.

Completed entries (count: 3):
C[C@H]1CN(CCCCCCCCNC(=O)Oc2cccc(C(C)(C)CN(C)C)c2)C[C@H](C)O1 (relative stereo) [Ex. 3] : 1200
CN(C)CC(C)(C)c1cccc(OC(=O)NCCCCCCCCN2CCOCC2)c1 [Ex. 1] : 470
C[C@@H]1CN(CCCCCCCCNC(=O)Oc2cccc(C(C)(C)CN(C)C)c2)C[C@H](C)O1 [Ex. 2] : 1100

Prompt: Looking for the measured IC50 of CCCCCCCNC(=O)Oc1cccc(C(C)(C)CN(C)C)c1 [Ex. 5] , can you help?
Completion: 120

Prompt: Looking for the measured IC50 of CCCCNC(=O)Oc1cccc(C(C)(C)CN(C)C)c1 [Ex. 4] , can you help?
Completion: 250
